Below, each of the compounds is paired with its reported log10(EC50) value.
experimental.target: human recombinant MC1 receptor (Homo sapiens)
Sequence (Q01726 whole entry): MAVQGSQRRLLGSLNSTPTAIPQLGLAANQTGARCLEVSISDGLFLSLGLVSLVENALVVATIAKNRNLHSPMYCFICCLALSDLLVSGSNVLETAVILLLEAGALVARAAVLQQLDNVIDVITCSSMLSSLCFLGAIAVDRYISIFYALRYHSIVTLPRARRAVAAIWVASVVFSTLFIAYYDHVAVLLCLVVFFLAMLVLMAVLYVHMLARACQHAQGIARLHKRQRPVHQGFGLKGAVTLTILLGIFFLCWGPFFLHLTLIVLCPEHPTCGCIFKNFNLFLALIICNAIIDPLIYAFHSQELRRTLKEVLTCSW
protocol: MC1R activation, cAMP HTRF assay in CHO-K1 cells
Where a SMILES comes first, the peptide text is derived from it. [ ]: non-standard residue; d: D form. The star is where a group is joined. 2Nal = N[C@@H](Cc1ccc2ccccc2c1)C(=O)O; d2Nal = N[C@H](Cc1ccc2ccccc2c1)C(=O)O; Dab = NCC[C@H](N)C(=O)O; Bz = O=C(c1ccccc1)*; NPr2 = CCCN(CCC)*
measure.name: log10(EC50) (log10 of the value in nM)

{"compound": "N=C(N)NCCC[C@H](NC(=O)[C@@H](Cc1ccccc1)NC(=O)[C@H](Cc1c[nH]cn1)NC(=O)CNC(=O)c1ccccc1)C(=O)N[C@H](Cc1ccccc1)C(N)=O [Peptide 6] (Bz-GH[dF]R[dF]-NH2)", "numeric.value": 0.25}
{"compound": "N=C(N)NCCC[C@H](NC(=O)[C@@H](Cc1ccccc1)NC(=O)[C@H](Cc1c[nH]cn1)NC(=O)CNC(=O)c1ccccc1)C(=O)N[C@@H](Cc1c[nH]c2ccccc12)C(N)=O [Peptide 1] (Bz-GH[dF]RW-NH2)", "numeric.value": -1.39}
{"compound": "CCCN(CCC)C(=O)[C@H](Cc1c[nH]c2ccccc12)NC(=O)[C@H](CCCNC(=N)N)NC(=O)[C@@H](Cc1ccccc1)NC(=O)[C@H](Cc1c[nH]cn1)NC(=O)CNC(=O)c1ccccc1 [Peptide 5] (Bz-GH[dF]RW-NPr2)", "numeric.value": -0.06}
{"compound": "CCCN(CCC)C(=O)[C@@H](Cc1c[nH]c2ccccc12)NC(=O)[C@H](CCCNC(=N)N)NC(=O)[C@@H](Cc1ccccc1)NC(=O)[C@H](Cc1c[nH]cn1)NC(=O)CNC(=O)c1ccccc1 [Peptide 4] (Bz-GH[dF]R[dW]-NPr2)", "numeric.value": -0.38}
{"compound": "N=C(N)NCCC[C@H](NC(=O)[C@@H](Cc1ccccc1)NC(=O)[C@H](Cc1c[nH]cn1)NC(=O)CNC(=O)c1ccccc1)C(=O)N[C@@H](Cc1ccc2ccccc2c1)C(N)=O [Peptide 2] (Bz-GH[dF]R[2Nal]-NH2)", "numeric.value": -0.96}
{"compound": "N=C(N)NCCC[C@H](NC(=O)[C@@H](Cc1ccccc1)NC(=O)[C@H](Cc1c[nH]cn1)NC(=O)CNC(=O)c1ccccc1)C(=O)N[C@H](Cc1ccc2ccccc2c1)C(N)=O [Peptide 3] (Bz-GH[dF]R[d2Nal]-NH2)", "numeric.value": -0.60}
{"compound": "NCC[C@H](NC(=O)[C@@H](Cc1ccccc1)NC(=O)[C@H](Cc1c[nH]cn1)NC(=O)CNC(=O)c1ccccc1)C(=O)N[C@@H](Cc1c[nH]c2ccccc12)C(N)=O [Peptide 8] (Bz-GH[dF][Dab]W-NH2)", "numeric.value": 0.88}
